- Tested on: Rattus norvegicus
- TEST_SUMMARY: Inhibition of histamine-induced gastric acid secretion in rat in perfused stomach preparation at 5 mg/kg, iv after 15 mins
- Type: functional
- APPLIED_CONDITIONS: 0.25 h
OUTCOME_MEASURE: inhibition in vivo at 5 mg/kg (%)
// units = %; emit number, no label

Guide cases for inhibition in vivo at 5 mg/kg, answers given:
CCN1CCCC(COc2ccccc2CCC2CCCCC2)C1 (stereo not drawn)    57
CCCCCCc1ccccc1OCCN(CC)CC    48
CCN(CC)CCOc1ccccc1CCCC(C)(C)C    50
CC(C)N(CCOc1ccccc1CCC1CCCCC1)C(C)C    32
CCN(CC)CCOc1ccc(OC)cc1CCC1CCCCC1    78

Fill in the blank: the reported inhibition in vivo at 5 mg/kg of CCCCCC/C=C/c1ccccc1OCCN1CCCC1 is ____.
50

Fill in the blank: the reported inhibition in vivo at 5 mg/kg of CCN(CC)CCOc1ccccc1CCC1CCCCC1 is ____.
74

Fill in the blank: the reported inhibition in vivo at 5 mg/kg of CC(C)CN1CCN(CCOc2ccccc2CCC2CCCCC2)CC1 is ____.
51

Fill in the blank: the reported inhibition in vivo at 5 mg/kg of CCN(CC)CCOc1ccc(F)cc1CCC1CCCCC1 is ____.
95

Fill in the blank: the reported inhibition in vivo at 5 mg/kg of CCN(CC)CCCOc1ccccc1CCC1CCCCC1 is ____.
66

Fill in the blank: the reported inhibition in vivo at 5 mg/kg of CCCCCCCc1ccccc1OCCN(CC)CC is ____.
82

Fill in the blank: the reported inhibition in vivo at 5 mg/kg of CCCCCCCc1cc(C)ccc1OCCN(CC)CC is ____.
61

Fill in the blank: the reported inhibition in vivo at 5 mg/kg of CN(C)CCCOc1ccccc1CCC1CCCCC1 is ____.
42

----------
- System: Rattus norvegicus
- TEST_SUMMARY: Inhibition of histamine-induced gastric acid secretion in rat in perfused stomach preparation at 5 mg/kg, iv after 15 mins
- Format: functional
- APPLIED_CONDITIONS: 0.25 h
Param threshold (30%) applies to inhibition in vivo at 5 mg/kg; output fulfilled when value >= threshold, not fulfilled when value < threshold.

CN1CCCCC1COc1ccccc1CCC1CCCCC1 (stereo unspecified)    fulfilled

Does inhibition in vivo at 5 mg/kg meet or surpass 30% for c1ccc(OCCN2CCCC2)c(CCC2CCCCC2)c1 ?
fulfilled

Does inhibition in vivo at 5 mg/kg meet or surpass 30% for CN1CCN(CCOc2ccccc2CCC2CCCCC2)CC1 ?
not fulfilled

----------
inhibition in vivo at 5 mg/kg reference
- Test system: Rattus norvegicus
- TEST_SUMMARY: Inhibition of histamine-induced gastric acid secretion in rat in perfused stomach preparation at 5 mg/kg, iv after 15 mins
- Type: functional
- APPLIED_CONDITIONS: 0.25 h
// units = %; emit number, no label

Guide cases for inhibition in vivo at 5 mg/kg, answers given:
CCCCC/C=C/c1ccccc1OCCN1CCCC1    71
CN(C)CCOc1ccccc1CCC1CCCCC1    29
CCCCCCCCCc1ccccc1OCCN(CC)CC    25

Then this molecule:
Fill in the blank: the reported inhibition in vivo at 5 mg/kg of CCCN(CCC)CCOc1ccccc1CCC1CCCCC1 is ____.
62

----------
- Tested on: Rattus norvegicus
- TEST_SUMMARY: Inhibition of histamine-induced gastric acid secretion in rat in perfused stomach preparation at 5 mg/kg, iv after 15 mins
- Type: functional
- APPLIED_CONDITIONS: 0.25 h
OUTCOME_MEASURE: inhibition in vivo at 5 mg/kg (%)
// units = %; emit number, no label

Fill in the blank: the reported inhibition in vivo at 5 mg/kg of CCN(CC)CCOc1ccc(Cl)cc1CCC1CCCCC1 is ____.
75

Fill in the blank: the reported inhibition in vivo at 5 mg/kg of c1ccc(OCCN2CCOCC2)c(CCC2CCCCC2)c1 is ____.
10

Fill in the blank: the reported inhibition in vivo at 5 mg/kg of c1ccc(N2CCN(CCOc3ccccc3CCC3CCCCC3)CC2)cc1 is ____.
0

Fill in the blank: the reported inhibition in vivo at 5 mg/kg of CCN(CC)CCOc1ccc(C(C)=O)cc1CCC1CCCCC1 is ____.
36

Data credit: ChEMBL document CHEMBL3272164
